Target desc: human V2 receptor (Homo sapiens, UniProt P30518)
Construct: expressed in transfected cells; host or cells: CHO K1 (ATCC) expressing firefly luciferase under a CRE-responsive promoter
Sequence (P30518 whole entry): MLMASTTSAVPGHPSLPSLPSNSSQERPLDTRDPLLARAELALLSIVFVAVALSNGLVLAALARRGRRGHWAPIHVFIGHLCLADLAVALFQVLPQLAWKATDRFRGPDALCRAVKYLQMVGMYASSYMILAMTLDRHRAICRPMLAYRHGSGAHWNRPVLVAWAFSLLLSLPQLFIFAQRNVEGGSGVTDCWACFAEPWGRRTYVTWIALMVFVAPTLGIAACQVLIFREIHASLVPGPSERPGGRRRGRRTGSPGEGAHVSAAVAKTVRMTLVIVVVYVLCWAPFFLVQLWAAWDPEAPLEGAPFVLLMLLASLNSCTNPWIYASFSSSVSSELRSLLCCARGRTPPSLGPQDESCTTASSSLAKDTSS
Assay text: Cellular in vitro assay for determining vasopressin receptor activity, V2 receptor cell line (CHO, CRE-luciferase)
Assay type: cell-based
Applied conditions: CHO cell line transfected with human V2 receptor; [Arg8]-vasopressin at EC50 concentration, 3 hours; read-out: IC50 hV2
Below is a list of entries, each paired with its recorded pIC50 value.
To interpret pIC50, take it as minus log10 of a concentration measured in moles per litre.

O=C(Nc1ncccc1-n1cnc(Cn2nc(-c3ccc(Cl)cc3)n(C[C@H](O)C(F)(F)F)c2=O)n1)C1CC1F (single isomer, unassigned) [Example 78] : 5.44
O=C(Nc1ncccc1-n1cnc(Cn2nc(-c3ccc(Cl)cc3)n(C[C@H](O)C(F)(F)F)c2=O)n1)C1CCCCCC1 : 5.87
O=C(c1ccccc1-n1cnc(Cn2nc(-c3ccc(Cl)cc3)n(C[C@H](O)C(F)(F)F)c2=O)n1)N1CCCOCC1 : 6.01
NC(=O)CNC(=O)c1ccccc1-n1cnc(Cn2nc(-c3ccc(Cl)cc3)n(C[C@H](O)C(F)(F)F)c2=O)n1 : 6.68

Enter pIC50 (test system human V2 receptor (Homo sapiens, UniProt P30518)) for Cc1cccnc1NC(=O)c1ccccc1-n1cnc(Cn2nc(-c3ccc(Cl)cc3)n(C[C@H](O)C(F)(F)F)c2=O)n1 6.30

Give the observed pIC50 of CC1CC(=O)NC1C(=O)Nc1ncccc1-n1cnc(Cn2nc(-c3ccc(Cl)cc3)n(C[C@H](O)C(F)(F)F)c2=O)n1 (stereo partly shown) for human V2 receptor (Homo sapiens, UniProt P30518). 5.40

Under human V2 receptor (Homo sapiens, UniProt P30518): report pIC50 of O=C(NCc1ccccc1F)c1ccccc1-n1cnc(Cn2nc(-c3ccc(Cl)cc3)n(C[C@H](O)C(F)(F)F)c2=O)n1 . 6.46

Give reported pIC50 for O=C(NCC(O)C(F)(F)F)c1cccc(Cl)c1-n1cnc(Cn2nc(-c3ccc(Cl)cc3)n(C[C@H](O)C(F)(F)F)c2=O)n1 (mixture of isomers) (human V2 receptor (Homo sapiens, UniProt P30518)) 6.59

Specify the recorded pIC50 for CCn1nccc1C(=O)Nc1ncccc1-n1cnc(Cn2nc(-c3ccc(Cl)cc3)n(C[C@H](O)C(F)(F)F)c2=O)n1 , system: human V2 receptor (Homo sapiens, UniProt P30518). 5.89

Give reported pIC50 for CNC(=O)c1ccccc1-n1cnc(Cn2nc(-c3ccc(Cl)cc3)n(C[C@H](O)C(F)(F)F)c2=O)n1 (human V2 receptor (Homo sapiens, UniProt P30518)) 6.55

* * *

Parameter: ratio IC50 hV2/hV1a. Scope: all listed entries.
Target desc: human V1a receptor (Homo sapiens, UniProt P37288)
Construct: expressed in transfected cells; host or cells: CHO K1 (ATCC), also stably transfected with a modified aequorin
Sequence (P37288 whole entry): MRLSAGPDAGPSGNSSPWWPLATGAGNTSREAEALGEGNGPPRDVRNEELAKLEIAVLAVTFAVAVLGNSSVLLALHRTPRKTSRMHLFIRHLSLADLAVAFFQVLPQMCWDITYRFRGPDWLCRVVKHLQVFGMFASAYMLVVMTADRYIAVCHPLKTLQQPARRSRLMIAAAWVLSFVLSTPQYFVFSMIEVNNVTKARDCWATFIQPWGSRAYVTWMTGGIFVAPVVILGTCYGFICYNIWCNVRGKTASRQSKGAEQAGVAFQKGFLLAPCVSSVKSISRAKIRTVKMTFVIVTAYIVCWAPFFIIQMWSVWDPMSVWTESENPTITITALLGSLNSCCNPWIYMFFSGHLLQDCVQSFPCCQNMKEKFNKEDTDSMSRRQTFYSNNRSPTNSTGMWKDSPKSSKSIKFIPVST
Assay text: Cellular in vitro assay for determining vasopressin receptor activity, V1a receptor cell line (CHO, aequorin luminescence)
Type: cell-based
Applied conditions: selectivity ratio IC50 hV2 / IC50 hV1a
Please reply with the value in numeric form only.

Cc1cc(NC(=O)c2ccccc2-n2cnc(Cn3nc(-c4ccc(Cl)cc4)n(C[C@H](O)C(F)(F)F)c3=O)n2)cnc1F [Example 250] : 19.6
O=C(NC1CC1(F)F)c1cccc(C(F)(F)F)c1-n1cnc(Cn2nc(-c3ccc(Cl)cc3)n(C[C@H](O)C(F)(F)F)c2=O)n1 (mixture of isomers) [Example 420] : 19.7
CC1(C)COCCN1C(=O)c1ncccc1-n1cnc(Cn2nc(-c3ccc(Cl)cc3)n(C[C@H](O)C(F)(F)F)c2=O)n1 [Example 474] : 937.5
CN1CCC(C(=O)Nc2ncccc2-n2cnc(Cn3nc(-c4ccc(Cl)cc4)n(C[C@H](O)C(F)(F)F)c3=O)n2)CC1 [Example 109] : 58.7
O=C(Nc1ncccc1-n1cnc(Cn2nc(-c3ccc(Cl)cc3)n(C[C@H](O)C(F)(F)F)c2=O)n1)C1(C(F)(F)F)CC1 [Example 81] : 658.5

// fetch ratio IC50 hV2/hV1a given entry CCc1cc(C(=O)Nc2ncccc2-n2cnc(Cn3nc(-c4ccc(Cl)cc4)n(C[C@H](O)C(F)(F)F)c3=O)n2)no1 [Example 139] 22.7

Fill in reported ratio IC50 hV2/hV1a for this entry: O=C(c1ccccc1-n1cnc(Cn2nc(-c3ccc(Cl)cc3)n(C[C@H](O)C(F)(F)F)c2=O)n1)N1CCSCC1 [Example 311] 675.7

Look up and state reported ratio IC50 hV2/hV1a for O=C(NC1CCCC1)c1ccccc1-n1cnc(Cn2nc(-c3ccc(Cl)cc3)n(C[C@H](O)C(F)(F)F)c2=O)n1 [Example 343] 118.4

Report measured ratio IC50 hV2/hV1a; entry is O=C(Nc1cccnc1-n1cnc(Cn2nc(-c3ccc(Cl)cc3)n(C[C@H](O)C(F)(F)F)c2=O)n1)C(F)(F)F [Example 36] 3.4

Respond only with ratio IC50 hV2/hV1a recorded for O=C(Nc1cc(F)ccc1F)c1ccccc1-n1cnc(Cn2nc(-c3ccc(Cl)cc3)n(C[C@H](O)C(F)(F)F)c2=O)n1 [Example 304] 29.1

Answer with reported ratio IC50 hV2/hV1a of O=C(c1cccc(Cl)c1-n1cnc(Cn2nc(-c3ccc(Cl)cc3)n(C[C@H](O)C(F)(F)F)c2=O)n1)N1CCCCC1 [Example 381] 132.4

Read the entry CC1CCC(NC(=O)c2ccccc2-n2cnc(Cn3nc(-c4ccc(Cl)cc4)n(C[C@H](O)C(F)(F)F)c3=O)n2)CC1 (stereo partly shown) [Example 321] and write its reported ratio IC50 hV2/hV1a. 43.8
